details: 298.15 K; 100 kPa; Liquid; Vibrating tube method
property.measured: mass density (kg/m3)

compound="CCCCO [butan-1-ol]" property_measured="mass density" val=805.76
compound="CCCCCCCCCCC [undecane]" property_measured="mass density" val=736.64
compound="CCCCCO [pentan-1-ol]" property_measured="mass density" val=811.03
compound="CCCCCCO [hexan-1-ol]" property_measured="mass density" val=815.32
compound="CCCO [propan-1-ol]" property_measured="mass density" val=799.59

====

conditions: 343.15 K; 100 kPa; Liquid; Falling or rolling sphere viscometry
property.measured: viscosity (mPa·s)

1 = CCCCCCO
2 = CCCCO
3 = CCCCCCCCCCC
IN: Hello, I need these entries ordered by viscosity, highest reading first. Thanks! Sort and list the labels as requested.
OUT: 1, 2, 3
(1: 1.39 mPa·s, 2: 0.934 mPa·s, 3: 0.58 mPa·s)

P = CCCO
Q = CCCCCO
IN: # compare viscosity for P vs Q ; return the one with the smaller value Return value: the label identifying the chosen record.
OUT: P
(P: 0.752 mPa·s, Q: 1.152 mPa·s)

====

conditions: 293.15 K; 100 kPa; Liquid; Falling or rolling sphere viscometry
property.measured: viscosity (mPa·s)

input_smiles=CCCCCO val=4.011

a = CCCO
b = CCCCCCO
IN: Field: lower recorded viscosity (choose a or b ) // caller expects the label of the chosen entry
OUT: a

P = CCCCO
Q = CCCCCCCCCCC
IN: Exercise: compare P and Q ; which one has the greater viscosity? Reply briefly: the label of your chosen item.
OUT: P
(P: 3.066 mPa·s, Q: 1.145 mPa·s)

====

details: 338.15 K; 100 kPa; Liquid; Falling or rolling sphere viscometry
property.measured: viscosity (mPa·s)

input_smiles=CCCCO property_measured=viscosity unit_tag=mPa·s val=1.032
input_smiles=CCCCCO property_measured=viscosity unit_tag=mPa·s val=1.283

A = CCCCCCO
B = CCCCCCCCCCC
IN: # min-compare on viscosity between A and B Answer by stating the label of the chosen item.
OUT: B

====

conditions: 358.15 K; 100 kPa; Liquid; Falling or rolling sphere viscometry
property.measured: viscosity (mPa·s)

Some molecules with recorded viscosity:
input_smiles=CCCCCCCCCCC property_measured=viscosity unit_tag=mPa·s val=0.497
input_smiles=CCCCCO property_measured=viscosity unit_tag=mPa·s val=0.852

a = CCCCO
b = CCCCCCO
IN: Given the two records a and b , choose the one whose viscosity value is lower. Please indicate the selected item by its label.
OUT: a

====

settings: 343.15 K; 100 kPa; Liquid; Vibrating tube method
property.measured: mass density (kg/m3)

input_smiles=CCCO property_measured="mass density" unit_tag=kg/m3 val=761.67
input_smiles=CCCCO property_measured="mass density" unit_tag=kg/m3 val=769.8
input_smiles=CCCCCCO property_measured="mass density" unit_tag=kg/m3 val=781.83
input_smiles=CCCCCCCCCCC property_measured="mass density" unit_tag=kg/m3 val=703.22
input_smiles=CCCCCO property_measured="mass density" unit_tag=kg/m3 val=776.58

====

details: 353.15 K; 100 kPa; Liquid; Falling or rolling sphere viscometry
property.measured: viscosity (mPa·s)

Guide cases for viscosity, answers given:
compound="CCCCCO [pentan-1-ol]" property_measured=viscosity unit_tag=mPa·s val=0.939
compound="CCCO [propan-1-ol]" property_measured=viscosity unit_tag=mPa·s val=0.625

P = CCCCO [butan-1-ol]
Q = CCCCCCCCCCC [undecane]
R = CCCCCCO [hexan-1-ol]
IN: Kindly order the items shown according to viscosity, from the highest value down. Write the labels in rank order as requested.
OUT: R, P, Q
(R: 1.125 mPa·s, P: 0.762 mPa·s, Q: 0.522 mPa·s)
